From: ChEMBL document CHEMBL1201862

Please respond with reported GI50 for every item in the list.
test system: OVCAR-8; test: NCI tumour cell line growth inhibition, 48 h
Calls of active or inactive are those of the source. Rule as the data show it: active = GI50 up to about 1.1 µM and inactive = higher.

What reported GI50 corresponds to CS(=O)(=O)CSCSSCS(C)(=O)=O on OVCAR-8?
30.2 µM (inactive)

What reported GI50 corresponds to O=C1NC2(CCCC2)C(=O)C12CCCC2 on OVCAR-8?
> 100 µM (inactive)

What reported GI50 corresponds to O=c1cc(CC(O)(C(F)(F)Cl)C(F)(F)Cl)[nH]n1-c1ccccc1 on OVCAR-8?
> 100 µM (inactive)

What reported GI50 corresponds to COc1ccc2c(c1)CCN1CCCc3ccccc3C21 (configuration not stated) on OVCAR-8?
91 µM (inactive)

What reported GI50 corresponds to O=[N+]([O-])c1ccc(C2ON=C(c3ccccc3)N2C23CC4CC(CC(C4)C2)C3)cc1 (configuration not stated) on OVCAR-8?
> 10 µM (inactive)

What reported GI50 corresponds to N#Cc1nc(C2CC2)oc1N on OVCAR-8?
> 100 µM (inactive)

What reported GI50 corresponds to O=S1(=O)c2ccccc2C(=NO)c2ccccc21 on OVCAR-8?
> 100 µM (inactive)
